Experiment: Stability in human subcutaneous skin homogenate
Conditions: human
Can you tell me AUC for the items I'm about to list?
Give bare numbers, in µmol·min/L.

{"columns": ["compound", "assay endpoint", "recorded value"],
 "data": [
  ["CCCCCC(CCC1C(O)CC2Cc3c(cccc3OCC(=O)O)CC21)OC(=O)CCC(=O)O (stereo not drawn) [XX]", "AUC", 1.76]
]}

Go through the items and report each one's AUC.
1. CCCCCC(CCC1C(O)CC2Cc3c(cccc3OCC(=O)O)CC21)OCCC (stereo not drawn) [XLVI]
2. CCCCCC(CCC1C(O)CC2Cc3c(cccc3OCC(=O)O)CC21)OC(=O)CCN (stereo not drawn) [XXXVII]
3. CCCCCC(CCC1C(O)CC2Cc3c(cccc3OCC(=O)O)CC21)OC(=O)OCCOCCOC (stereo not drawn) [XLI]
4. CCCCCC(O)CCC1C(O)CC2Cc3c(cccc3OCC(=O)NCC(=O)O)CC21 (stereo not drawn) [VII new]

Reply |
0.00
1.53
11.37
0.00

Go through the items and report each one's AUC.
1. CCCCCC(CCC1C(O)CC2Cc3c(cccc3OCC(=O)O)CC21)OC(=O)CN (stereo not drawn) [XXX]
2. CCCCCC(CCC1C(O)CC2Cc3c(cccc3OCC(=O)O)CC21)OC(=O)OC (stereo not drawn) [IV 1st]
3. CCCCCC(CCC1C(O)CC2Cc3c(cccc3OCC(=O)O)CC21)OC(=O)CCC(=O)O (stereo not drawn) [XX new]
4. CCCCCC(CCC1C(O)CC2Cc3c(cccc3OCC(=O)O)CC21)OC(=O)C(C)N (stereo not drawn) [XXXI]
5. CCCCCC(CCC1C(O)CC2Cc3c(cccc3OCC(=O)O)CC21)OC (stereo not drawn) [XLV]

Reply |
1: 38.78; 2: 7.07; 3: 1.75; 4: 22.23; 5: 0.00

Go through the items and report each one's AUC.
1. CCCCCC(CCC1C(O)CC2Cc3c(cccc3OCC(=O)O)CC21)OCOC(=O)C(C)(C)C (stereo not drawn) [LII]
2. CCCCCC(CCC1C(O)CC2Cc3c(cccc3OCC(=O)O)CC21)OC(=O)C1CCCN1 (stereo not drawn) [XXXVI]
3. CCCCCC(CCC1C(O)CC2Cc3c(cccc3OCC(=O)O)CC21)OC(=O)OCCOC (stereo not drawn) [XL]
4. CCCCCC(CCC1C(O)CC2Cc3c(cccc3OCC(=O)O)CC21)OC(=O)OC(C)C (stereo not drawn) [XVII]

Reply |
1. 125.70
2. 60.56
3. 38.57
4. 13.92

Go through the items and report each one's AUC.
1. CCCCCC(CCC1C(O)CC2Cc3c(cccc3OCC(=O)O)CC21)OC(=O)NCC(=O)O (stereo not drawn) [XXXVIII]
2. CCCCCC(CCC1C(O)CC2Cc3c(cccc3OCC(=O)O)CC21)OC(N)=O (stereo not drawn) [XLII]
3. CCCCCC(CCC1C(O)CC2Cc3c(cccc3OCC(=O)O)CC21)OC(=O)C(C)(C)C (stereo not drawn) [XLIX]
4. CCCCCC(CCC1C(O)CC2Cc3c(cccc3OCC(=O)O)CC21)OC(=O)OCC (stereo not drawn) [XVI]
5. CCCCCC(CCC1C(O)CC2Cc3c(cccc3OCC(=O)O)CC21)OC(=O)OCC(=O)O (stereo not drawn) [XXXIX]
6. CCCCCC(CCC1C(OC(=O)CC)CC2Cc3c(cccc3OCC(=O)O)CC21)OC(=O)CC (stereo not drawn) [Prodrug LXX, treprostinil dipropionate]
7. CCCCCC(CCC1C(O)CC2Cc3c(cccc3OCC(=O)O)CC21)OC(=O)OC (stereo not drawn) [IV 2nd]

Reply |
0.00
0.00
3.62
34.95
0.00
5.303
62.69
